These measurements were taken from ChEMBL document CHEMBL1629658.

Tested on: Pichia kudriavzevii
Assay: Antifungal activity against Candida krusei isolated from candidemia patient by AFST-EUCAST microdilution method
Type: functional
MEASURED_ATTRIBUTE: MIC

Example results:
INSERT INTO results (compound, recorded_result) VALUES
  ('OC(Cn1cncn1)(Cn1cncn1)c1ccc(F)cc1F', '32 µg/mL'),
  ('CCC(C)n1ncn(-c2ccc(N3CCN(c4ccc(OCC5COC(Cn6cncn6)(c6ccc(Cl)cc6Cl)O5)cc4)CC3)cc2)c1=O (centres undefined)', '0.12 µg/mL'),
  ('CC[C@H](C)C[C@H](C)CCCCCCCCC(=O)N[C@H]1C[C@@H](O)[C@@H](NCCN)NC(=O)[C@@H]2[C@@H](O)CCN2C(=O)[C@H]([C@H](O)CCN)NC(=O)[C@H]([C@H](O)[C@@H](O)c2ccc(O)cc2)NC(=O)[C@@H]2C[C@@H](O)CN2C(=O)[C@H]([C@@H](C)O)NC1=O', '0.5 µg/mL');

With those in mind, consider the next compound.
Problem: Specify measured MIC for C[C@@H]1[C@H](O)[C@@H](C)/C=C/C=C/C=C/C=C/C=C/C=C/C=C/[C@H](O[C@@H]2O[C@H](C)[C@@H](O)[C@H](N)[C@@H]2O)C[C@@H]2O[C@](O)(C[C@@H](O)C[C@@H](O)[C@H](O)CC[C@@H](O)C[C@@H](O)CC(=O)O[C@H]1C)C[C@H](O)[C@H]2C(=O)O .
Result: 0.25 µg/mL

###

Hi there, I'd appreciate the recorded MIC for every entry that follows.
System: Kluyveromyces marxianus
Assay: Antifungal activity against Candida kefyr isolated from candidemia patient by AFST-EUCAST microdilution method
Assay type: functional
Numbers only, in mg/L.

INSERT INTO assay_data (molecule, recorded_result) VALUES
  ('C[C@@H]1[C@H](O)[C@@H](C)/C=C/C=C/C=C/C=C/C=C/C=C/C=C/[C@H](O[C@@H]2O[C@H](C)[C@@H](O)[C@H](N)[C@@H]2O)C[C@@H]2O[C@](O)(C[C@@H](O)C[C@@H](O)[C@H](O)CC[C@@H](O)C[C@@H](O)CC(=O)O[C@H]1C)C[C@H](O)[C@H]2C(=O)O [AMPHOTERICIN B]', 0.5),
  ('OC(Cn1cncn1)(Cn1cncn1)c1ccc(F)cc1F [FLUCONAZOLE]', 0.12),
  ('CCC(C)n1ncn(-c2ccc(N3CCN(c4ccc(OCC5COC(Cn6cncn6)(c6ccc(Cl)cc6Cl)O5)cc4)CC3)cc2)c1=O (stereo unspecified) [ITRACONAZOLE]', 0.25),
  ('CC[C@@H]([C@H](C)O)n1ncn(-c2ccc(N3CCN(c4ccc(OC[C@@H]5CO[C@@](Cn6cncn6)(c6ccc(F)cc6F)C5)cc4)CC3)cc2)c1=O [POSACONAZOLE]', 0.25),
  ('Nc1nc(=O)[nH]cc1F [FLUCYTOSINE]', 0.12);

Problem: Given C[C@@H](c1ncncc1F)[C@](O)(Cn1cncn1)c1ccc(F)cc1F [VORICONAZOLE] , report its MIC on Kluyveromyces marxianus.
Result: 4

###

System: [Candida] intermedia
Experiment: Antifungal activity against Candida intermedia isolated from candidemia patient by AFST-EUCAST microdilution method
Format: functional
Conditions: Sungouiella intermedia
Can you tell me log10 of MIC for the items I'm about to list?
All values: base-10 log of MIC in µg/mL.

INSERT INTO measurements (molecule, tested_system, measured_attribute, recorded_result) VALUES
  ('C[C@@H]1[C@H](O)[C@@H](C)/C=C/C=C/C=C/C=C/C=C/C=C/C=C/[C@H](O[C@@H]2O[C@H](C)[C@@H](O)[C@H](N)[C@@H]2O)C[C@@H]2O[C@](O)(C[C@@H](O)C[C@@H](O)[C@H](O)CC[C@@H](O)C[C@@H](O)CC(=O)O[C@H]1C)C[C@H](O)[C@H]2C(=O)O', '[Candida] intermedia', 'log10 of MIC', -0.30),
  ('Nc1nc(=O)[nH]cc1F', '[Candida] intermedia', 'log10 of MIC', 1.81),
  ('OC(Cn1cncn1)(Cn1cncn1)c1ccc(F)cc1F', '[Candida] intermedia', 'log10 of MIC', 0.00),
  ('CC[C@@H]([C@H](C)O)n1ncn(-c2ccc(N3CCN(c4ccc(OC[C@@H]5CO[C@@](Cn6cncn6)(c6ccc(F)cc6F)C5)cc4)CC3)cc2)c1=O', '[Candida] intermedia', 'log10 of MIC', -0.60),
  ('CC[C@H](C)C[C@H](C)CCCCCCCCC(=O)N[C@H]1C[C@@H](O)[C@@H](NCCN)NC(=O)[C@@H]2[C@@H](O)CCN2C(=O)[C@H]([C@H](O)CCN)NC(=O)[C@H]([C@H](O)[C@@H](O)c2ccc(O)cc2)NC(=O)[C@@H]2C[C@@H](O)CN2C(=O)[C@H]([C@@H](C)O)NC1=O', '[Candida] intermedia', 'log10 of MIC', -1.52);

Problem: Recall and state the measured log10 of MIC for CCC(C)n1ncn(-c2ccc(N3CCN(c4ccc(OCC5COC(Cn6cncn6)(c6ccc(Cl)cc6Cl)O5)cc4)CC3)cc2)c1=O (stereo unspecified) .
Result: -0.92
